Tested on: SARS-CoV-2
Test: Authentic virus inhibition assay, SARS-CoV-2 wild-type strain in Vero-E6 cells
Assay type: cell-based
Settings: Severe acute respiratory syndrome coronavirus 2, Vero C1008
Assay Readout: pEC50
The value called pEC50 is obtained by taking minus log10 of the concentration in mol/L.

Requested read-out: pEC50. Entry: O=C(NCc1ccccc1)C(=O)[C@H](C[C@@H]1CCCNC1=O)NC(=O)[C@H](Cc1ccc(F)cc1)NC(=O)c1cc2ccccc2o1 [14a]
7.29

* * *

Experiment: Pharmacokinetics in mice
Format: in vivo
Conditions: male, CD-1, mouse, plasma, ip, 14b, i.p. (20 mg/kg)
Assay Readout: half-life

Requested read-out: half-life. Entry: O=C(NCc1ccccc1)C(=O)[C@H](C[C@@H]1CCCNC1=O)NC(=O)[C@H](CC1CCCCC1)NC(=O)c1cc2ccccc2o1 [14b]
5.77 h

The reported numbers originate from paper PMC10914734.
